Target: Cytochrome P450 2C19 (Homo sapiens) (UniProt P33261)
Sequence (P33261 whole entry, looked up): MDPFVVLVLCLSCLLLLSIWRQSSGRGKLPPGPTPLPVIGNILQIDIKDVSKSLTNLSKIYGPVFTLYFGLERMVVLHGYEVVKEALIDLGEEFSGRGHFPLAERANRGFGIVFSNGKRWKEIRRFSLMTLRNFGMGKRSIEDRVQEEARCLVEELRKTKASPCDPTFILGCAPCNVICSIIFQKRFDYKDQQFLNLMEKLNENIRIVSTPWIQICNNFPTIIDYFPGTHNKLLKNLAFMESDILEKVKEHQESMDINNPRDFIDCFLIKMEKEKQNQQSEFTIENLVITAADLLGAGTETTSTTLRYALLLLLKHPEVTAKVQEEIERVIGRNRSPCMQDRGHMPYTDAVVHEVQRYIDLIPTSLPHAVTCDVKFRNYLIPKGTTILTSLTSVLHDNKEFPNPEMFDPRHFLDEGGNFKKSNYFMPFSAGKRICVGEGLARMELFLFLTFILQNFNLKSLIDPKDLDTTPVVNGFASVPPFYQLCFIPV
Experiment: blockers of cytochrome P450 2C19 activity – biochemical, luminescence, ADME assay, primary screen (AID 778);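 note: plate controls were negative control wells for no effect and 2.5 mM tranylcypromine positive control for full effect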
Conditions: CYP2C19 Supersomes, luciferin-H EGE luminescence, 30 min; at 5 µM; active compounds read high
The campaign covered roughly 96,000 compounds. About 20,000 (21%) were called active. Only a sample is shown.
Consider the following molecules; for each one, report its inhibition.
Numbers only, in %.

Consider the following illustrative entries.
# MOLECULE, inhibition / %
measured = [
    ("COc1ccccc1NC(=O)CSc1nc2sc(C)c(C)c2c(=O)n1Cc1ccco1", 92.9),
    ("COCn1c(COc2ccccc2)nc2ccccc21", 51.4),
    ("CC1CN(C(=O)c2ccc3c(c2)OCO3)OC(c2ccccc2)O1 (stereo not drawn)", 74.6),
    ("COc1cccc(N2CCN(C3CC(=O)N(c4ccc(Cl)cc4)C3=O)CC2)c1 (stereo not drawn)", -17.1),
    ("O=C(C(Cc1ccccc1)n1cccc1)N1CCN(C2CCCCC2)CC1 (stereo not drawn)", 98.1),
]

I would be grateful if you could provide inhibition for each of the following entries.
1. O=C(c1ccc2c(c1)OCO2)N1CCNc2ccccc2C1
2. N#Cc1c2c(c(-c3ccccc3)[nH]c1=O)CCCC2
3. O=[N+]([O-])c1ccccc1OCCCCN1CCCCC1
4. COCC(=O)Nc1ccc(Br)cc1

## Result
16.6
-17.8
1
13

----------
Consider the following compounds; for each one, report its inhibition.
Molecular target: Cytochrome P450 2C19 (Homo sapiens) (UniProt P33261)
Experiment: blockers of cytochrome P450 2C19 activity – biochemical, luminescence, ADME assay, primary screen (AID 778);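 note: plate controls were negative control wells for no effect and 2.5 mM tranylcypromine positive control for full effect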
Conditions: CYP2C19 Supersomes, luciferin-H EGE luminescence, 30 min; at 5 µM; active compounds read high
The campaign covered roughly 96,000 compounds. About 20,000 (21%) were called active. The list is a sample of the results.

Consider the following illustrative entries.
# COMPOUND, inhibition
records = [
    ("Cc1ccc(N2C(=O)C(Cc3ccccc3)NC2=S)cc1 (configuration not stated)", "39.4% (inactive)"),
    ("CCOC(=O)CSc1nccc(N(C)C)c1C#N", "25.5% (inactive)"),
    ("CCOc1ccccc1NC(=O)CCc1ccc(C)o1", "90.7% (active)"),
    ("COC(=O)C1(S(=O)(=O)C2(C(=O)OC)CCCC2)CCCC1", "65.4% (active)"),
]

I would be grateful if you could provide inhibition for each of the following entries.
1. Cc1cccc(N2CCN(C(=O)c3cnn4c(C(F)F)cc(-c5ccccc5)nc34)CC2)c1C
2. CCOc1ccccc1Nc1nnc(SCC(=O)Nc2cc(C)on2)s1
3. O=C(Nc1ccccc1)N1CCN(Cc2ccccc2)CC1
4. O=C1Nc2cc(Cl)c(Cl)cc2N(O)N1c1cc(Cl)cc(Cl)c1

## Result
51% (active)
9.6% (inactive)
76.7% (active)
-1.7% (inactive)

I would be grateful if you could provide inhibition for each of the following entries.
1. COc1ccc(N2C(=O)c3cccc4cccc(c34)C2=O)nn1
2. CCOc1ccc(NC(=O)N2CCN(CC)CC2)cc1

## Result
1. -8.5% (inactive)
2. -6.1% (inactive)

I would be grateful if you could provide inhibition for each of the following entries.
1. Cc1ccc(C)n1-c1ccncc1
2. CC(=O)Oc1ccc(C)cc1N1C(=O)c2ccc(C(=O)O)cc2C1=O

## Result
56.5% (active)
-15.2% (inactive)
